Reference source for all entries: patent US20240400717A1

Measured koff accompanies every entry in the list below.
Study system: T1, human CHI3L1 extracellular domain fused with flag and His tag recombinant protein (human, UniProt P36222 22-383)
T1 construct: extracellular domain; also called hCHI3L1/flag-His; hCHI3L1; not shown: flag and His tag
T1 sequence (P36222 22-383 limits assumed): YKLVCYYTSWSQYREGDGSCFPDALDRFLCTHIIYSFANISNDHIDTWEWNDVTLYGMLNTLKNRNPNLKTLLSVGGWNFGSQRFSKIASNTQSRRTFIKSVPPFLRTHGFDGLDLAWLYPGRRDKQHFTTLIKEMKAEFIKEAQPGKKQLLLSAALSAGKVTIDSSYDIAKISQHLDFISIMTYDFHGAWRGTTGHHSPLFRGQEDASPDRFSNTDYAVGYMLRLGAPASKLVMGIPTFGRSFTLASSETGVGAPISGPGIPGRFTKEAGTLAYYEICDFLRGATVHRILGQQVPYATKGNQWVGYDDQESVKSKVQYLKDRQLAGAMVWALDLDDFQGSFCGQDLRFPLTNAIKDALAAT
Protocol summary: BLI (ForteBio Octet), mAb captured on AHC sensor, hCHI3L1/flag-His as analyte
Respond with the bare value in s⁻¹.

Below: 2 binders and their reported koff.
Binder	Recorded result
anti-CHI3L1 clone R4-4 (antibody, V domains shown, also called #hu R4-4; mAb clone R4-4) VH: EVQLLESGGGLLQPGGSLRLSCAASGLTFRNYAMTWVRQAPGKGLEWVSTISGNGDETFYADSVKGHFTISRDNSKDTVYLQMNSLRAEDTAVYYCAKGGHYSFFDSWGQGSPVTVSS VL: NFMLTQPHSVSESPGKTVTISCTRSSGSIASNYVQWYQQRPGSSPTTVIYEDNQRPSGVPDRFSGSIDSSSNSASLTISGLKTEDEADYYCQSYDSSNYVFGTGTKVTVLG	0.000353
anti-CHI3L1 clone 293R3-2 (antibody, human IgG1, V domains shown, also called #hu 293R3-2; CHI3L1 293R3-2) VH: QVQLQESGPGLVEPSGTLSLTCAVSGGSISSSNWWSWVRQHPGKGLEWIGEIYHSGSTNYNPSLRSRVTISVDKSKNQFSLELSSVTAADTAVYYCAGDQRMEDDAFDIWGQGTMVTVSS VL: QSALTQPASVSGSPGQSITISCTGTSSDVGGYNYVSWYQQHPGKAPKLMIYDVSNRPSGVSNRFSGSKSGNTASLTISGLQAEDEADYYCSSYTSSSTLYVFGTGTKVTVLG	0.00302

Ask: Any idea what koff was measured for anti-CHI3L1 clone R4-54 (antibody, human IgG1, V domains shown, also called #hu R4-54; mAb clone R4-54) VH: QVQLVESGGGVVQPGRSLRLSCAASGFTFSSYGMHWVRQAPGKGLEWVAVISYDGSDKDYADSVKGRFTISRDNSKNTLFLQMNSLRAEDTAVYYCARDDYDSTYYFDNWGQGTTVTVSS VL: SYELTQPPSVSVSPGQTASITCSGDILADQYASWYQQKPGQSPVLVIYHDTKRPSGVPERFSGSTSGNTATLTISGTQAMDEAAYYCQAWDINTAWVFGGGTQLTVLG ?
Result: 0.0065

Ask: Sample anti-CHI3L1 clone 293R3-4 (antibody, human IgG1, V domains shown, also called #hu 293R3-4; CHI3L1 293R3-4) VH: EVQLVQSGAEVKKPGATVKISCKVSGYSFTDYYIHWVQQAPGKGLEWMGFVDPENGETIYAEKFQGRVTITADTSTDTAYMELSSLRSDDTAVYYCATDRDYDDSSGNAFDIWGQGTMVTVSS VL: SYELTQPPSVSVSTGQTATITCSGDILGDEYAFWYQQKAGQSPVLVIYLDTRRPSGIPERFSGSNSGDTATLTISETQPVDEAVYFCQGWDSSTALYVFGTGTKVTVLG — what was its koff?
Result: 0.00722
